- measurement_protocol: Cytotoxicity (IC50) on HDF
- Assay type: cell-based, human
- stated_conditions: human, human dermal fibroblasts (HDF), normal cells; Table 1, value in parentheses
measured_metric: pIC50
Scale: negative log10 of molar concentration, which is what pIC50 denotes.

Task item: Please give the measured pIC50 for this compound: CCCC=C1OC(=O)c2ccccc21 [BP, n-Butylidenephthalide]
Reply: 2.80

###

// reported pIC50 for each item listed
- Tested on: HUVEC
- measurement_protocol: Cytotoxicity (IC50) on HUVEC
- Assay type: cell-based, human
- stated_conditions: normal cells; Table 1, value in parentheses
pIC50: −log10 of the molar value.

compound	pIC50
CCC/C=C1/OC(=O)c2ccccc21 [BP-E form]	< 3.27

Task item: Please give the measured pIC50 for this compound: CCC/C=C1\OC(=O)c2ccccc21 [BP-Z form]
Reply: < 3.27

###

- System: RG2
- measurement_protocol: Cytotoxicity (IC50) on RG2
- Format: cell-based, rat
- stated_conditions: Table 1, value in parentheses
measured_metric: IC50

compound	target_of_assay	measured_metric	reported
CCC/C=C1\OC(=O)c2ccccc21 [BP-Z form]	RG2	IC50	> 106 µM

Proceed to the following item.
Task item: Please give the measured IC50 for this compound: CCC/C=C1/OC(=O)c2ccccc21 [BP-E form]
Reply: > 106 µM
